Origin of values: patent US8067619B2

# Target Or System: KATP channels (Homo sapiens, UniProt O60706+Q14654)
# Construct: TE671 human medulloblastoma cells were obtained from ATCC
# Sequence (O60706 1-1549 isoform O60706-2): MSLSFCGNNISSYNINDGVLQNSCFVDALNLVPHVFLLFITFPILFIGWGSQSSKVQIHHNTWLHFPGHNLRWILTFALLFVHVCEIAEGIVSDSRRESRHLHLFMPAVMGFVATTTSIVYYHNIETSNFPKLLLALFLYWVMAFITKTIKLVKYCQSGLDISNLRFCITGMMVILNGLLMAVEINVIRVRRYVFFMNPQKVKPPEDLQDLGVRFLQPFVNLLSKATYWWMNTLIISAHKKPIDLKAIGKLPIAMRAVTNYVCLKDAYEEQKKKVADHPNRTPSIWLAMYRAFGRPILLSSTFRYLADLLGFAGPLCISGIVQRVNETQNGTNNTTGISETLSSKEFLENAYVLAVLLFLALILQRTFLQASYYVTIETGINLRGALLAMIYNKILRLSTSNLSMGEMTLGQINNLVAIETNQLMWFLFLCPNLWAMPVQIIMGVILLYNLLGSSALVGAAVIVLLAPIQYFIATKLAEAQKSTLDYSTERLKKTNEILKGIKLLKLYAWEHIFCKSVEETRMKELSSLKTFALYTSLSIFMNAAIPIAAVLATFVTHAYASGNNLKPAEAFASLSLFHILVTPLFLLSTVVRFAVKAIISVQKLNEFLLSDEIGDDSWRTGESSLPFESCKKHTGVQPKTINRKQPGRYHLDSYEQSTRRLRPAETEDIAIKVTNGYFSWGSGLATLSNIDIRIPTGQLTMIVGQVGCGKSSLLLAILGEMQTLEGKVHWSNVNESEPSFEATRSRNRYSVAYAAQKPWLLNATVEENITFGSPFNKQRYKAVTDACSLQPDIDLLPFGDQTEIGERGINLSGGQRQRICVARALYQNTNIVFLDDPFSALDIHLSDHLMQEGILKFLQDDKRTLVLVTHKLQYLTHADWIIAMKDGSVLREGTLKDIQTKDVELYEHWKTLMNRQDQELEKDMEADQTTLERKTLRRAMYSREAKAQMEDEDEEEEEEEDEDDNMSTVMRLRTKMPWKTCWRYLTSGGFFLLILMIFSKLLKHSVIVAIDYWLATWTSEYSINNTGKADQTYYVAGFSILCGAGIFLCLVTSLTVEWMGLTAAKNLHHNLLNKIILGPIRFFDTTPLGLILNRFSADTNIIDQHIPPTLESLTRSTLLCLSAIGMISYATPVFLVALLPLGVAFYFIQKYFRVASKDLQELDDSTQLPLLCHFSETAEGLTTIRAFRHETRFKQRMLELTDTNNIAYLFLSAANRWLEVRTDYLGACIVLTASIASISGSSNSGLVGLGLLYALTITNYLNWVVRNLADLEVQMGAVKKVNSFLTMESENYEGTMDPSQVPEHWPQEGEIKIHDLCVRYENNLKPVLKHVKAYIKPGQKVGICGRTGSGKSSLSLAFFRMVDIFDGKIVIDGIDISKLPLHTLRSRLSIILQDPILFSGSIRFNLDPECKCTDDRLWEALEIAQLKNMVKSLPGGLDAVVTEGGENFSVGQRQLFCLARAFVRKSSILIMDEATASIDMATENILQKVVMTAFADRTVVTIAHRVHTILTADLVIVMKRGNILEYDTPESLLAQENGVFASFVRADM
# Sequence (Q14654 whole entry): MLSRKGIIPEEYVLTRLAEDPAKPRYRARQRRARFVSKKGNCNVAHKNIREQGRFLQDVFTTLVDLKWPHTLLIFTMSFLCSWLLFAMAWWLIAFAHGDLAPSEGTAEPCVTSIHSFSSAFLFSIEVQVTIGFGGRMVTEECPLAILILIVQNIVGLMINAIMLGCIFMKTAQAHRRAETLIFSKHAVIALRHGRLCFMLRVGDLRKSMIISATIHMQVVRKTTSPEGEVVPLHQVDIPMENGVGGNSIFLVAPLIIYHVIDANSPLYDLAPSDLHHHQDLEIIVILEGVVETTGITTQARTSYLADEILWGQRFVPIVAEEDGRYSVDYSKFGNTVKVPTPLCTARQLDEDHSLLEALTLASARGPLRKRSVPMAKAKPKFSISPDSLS
# Assay Notes: Potassium Channel Assay (FLIPR membrane potential, TE671 cells)
# Stated Conditions: TE671 human medulloblastoma cells, Membrane Potential Assay Dye, room temperature, hyperpolarization from KATP channel opening seen as decrease in fluorescent intensity
Measured pEC50 by item
Recall that pEC50 is obtained by taking minus log10 of the concentration measured in molar.

Please give the measured pEC50 for this compound: COCCc1c(-c2ccc(OC)cc2OC)c(=O)oc2cc(OS(=O)(=O)C(F)(F)F)ccc12
5.02

Please give the result for N#Cc1ccc2c(CC(=O)Nc3cccc(Cl)c3Cl)cc(=O)oc2c1 too.
4.97

Please give the result for O=c1cc(CC(O)c2ccc(Cl)cc2Cl)c2ccc(OS(=O)(=O)C(F)(F)F)cc2o1 (stereo not drawn) too.
5.18

Please give the result for N#Cc1ccc2c(CC(=O)c3ccc(Cl)cc3)cc(=O)oc2c1 too.
4.80

Please give the result for O=C(Cc1cc(=O)oc2cc(OS(=O)(=O)C(F)(F)F)ccc12)Nc1c(Cl)cc(Cl)cc1Cl too.
5.06

Please give the result for N#Cc1ccc2c(CCO)c(-c3ccc(O)cc3O)c(=O)oc2c1 too.
4.63

----------
Measured pEC50 by item
# Target Or System: KATP channels (Homo sapiens, UniProt O60706+Q14654)
# Construct: TE671 human medulloblastoma cells were obtained from ATCC
# Assay Notes: Potassium Channel Assay (FLIPR membrane potential, TE671 cells)
# Stated Conditions: TE671 human medulloblastoma cells, Membrane Potential Assay Dye, room temperature, hyperpolarization from KATP channel opening seen as decrease in fluorescent intensity
Recall that pEC50 is obtained by taking minus log10 of the concentration measured in molar.

Sample answers from the record:
> print(dat)
                                   compound  reported
1  N#Cc1ccc2c(CC(=O)Nc3ccc(F)cc3F)cc(=O)oc2c1 [Compound 15]      4.86
2  N#Cc1ccc2c(CC(=O)Nc3ccccc3F)cc(=O)oc2c1 [Compound 16]      5.42
3  O=C(Cc1cc(=O)oc2ccc(OS(=O)(=O)C(F)(F)F)cc12)c1cccc(Cl)c1 [Compound 22]      4.70

Please give the measured pEC50 for this compound: C=Cc1c(-c2ccc(O)cc2O)c(=O)oc2cc(C#N)ccc12 [Compound 9]
5.48

----------
# Target Or System: KATP channels (Homo sapiens, UniProt O60706+Q14654)
# Construct: TE671 human medulloblastoma cells were obtained from ATCC
# Assay Notes: Potassium Channel Assay (FLIPR membrane potential, TE671 cells)
# Stated Conditions: TE671 human medulloblastoma cells, Membrane Potential Assay Dye, room temperature, hyperpolarization from KATP channel opening seen as decrease in fluorescent intensity
Measurement Name: pEC50
Recall that pEC50 is obtained by taking minus log10 of the concentration measured in molar.

Sample answers from the record:
> print(dat)
                                   compound                          target.or.system  reported
1  N#Cc1ccc2c(CC(=O)Nc3cccc(Cl)c3)cc(=O)oc2c1 [Compound 18]  KATP channels (Homo sapiens, UniProt O60706+Q14654)      5.11
2  N#Cc1ccc2c(CC(=O)Nc3ccccc3Cl)cc(=O)oc2c1 [Compound 17]  KATP channels (Homo sapiens, UniProt O60706+Q14654)      4.71

Okay, now this compound:
Please give the measured pEC50 for this compound: O=c1oc2cc(OS(=O)(=O)C(F)(F)F)ccc2c(CCO)c1-c1ccc(O)cc1O [Compound 7]
4.71
